The reported numbers originate from patent US20140088114A1.

IC50 values for the compounds below.
# testSystem: Aurora B (Homo sapiens)
# Construct: HT-29 cells grown in complete growth media; endogenous in cells
# Sequence (Q96GD4 whole entry): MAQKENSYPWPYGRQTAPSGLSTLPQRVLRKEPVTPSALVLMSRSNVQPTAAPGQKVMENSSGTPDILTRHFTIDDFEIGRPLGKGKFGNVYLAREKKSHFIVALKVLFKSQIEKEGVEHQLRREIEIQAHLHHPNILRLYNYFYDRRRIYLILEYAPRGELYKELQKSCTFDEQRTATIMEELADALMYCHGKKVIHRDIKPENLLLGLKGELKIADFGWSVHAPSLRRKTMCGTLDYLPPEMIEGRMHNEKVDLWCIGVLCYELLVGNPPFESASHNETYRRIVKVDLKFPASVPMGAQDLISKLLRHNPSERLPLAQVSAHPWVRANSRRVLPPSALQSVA
# runDescription: Aurora B cell mechanistic assay (HT-29), phospho-Histone H3 (Ser10) ELISA
# conditionNotes: HT-29 cell line, inhibition of phospho-Histone H3 (Ser10), at least duplicate experiments (italicized if single); read-out: Aurora B mech IC50

[
  {
    "compound": "O[C@H]1CC[C@H](n2cc(-c3cnc4[nH]cc([C@H](CF)c5c(OC(F)F)ccc(F)c5Cl)c4c3)cn2)CC1",
    "testSystem": "Aurora B (Homo sapiens)",
    "measuredAttribute": "IC50",
    "obsValue": "≤ 30 nM"
  },
  {
    "compound": "COc1ccc(F)c(Cl)c1[C@@H](CF)c1c[nH]c2ncc(-c3cnn([C@H]4CC[C@H](O)CC4)c3)cc12",
    "testSystem": "Aurora B (Homo sapiens)",
    "measuredAttribute": "IC50",
    "obsValue": "≤ 30 nM"
  },
  {
    "compound": "COc1ccc(F)c(Cl)c1[C@H](CF)c1c[nH]c2ncc(-c3cnn([C@H]4CC[C@H](O)CC4)c3)cc12",
    "testSystem": "Aurora B (Homo sapiens)",
    "measuredAttribute": "IC50",
    "obsValue": "100 to 1000 nM"
  },
  {
    "compound": "Cn1cc(-c2cnc3[nH]cc(C(CF)c4c(Cl)ccc(F)c4Cl)c3c2)cn1 (centres unmarked)",
    "testSystem": "Aurora B (Homo sapiens)",
    "measuredAttribute": "IC50",
    "obsValue": "100 to 1000 nM"
  }
]

Prompt line: Any idea what IC50 came out for O[C@H]1CC[C@H](n2cc(-c3cnc4[nH]cc([C@@H](CF)c5c(OC(F)F)ccc(F)c5Cl)c4c3)cn2)CC1 on Aurora B (Homo sapiens)?
Response line: 100 to 1000 nM

====

# testSystem: RON (Homo sapiens)
# Construct: expressed in transfected cells; host or cells: HeLa
# Sequence (Q04912 913-1400 limits assumed): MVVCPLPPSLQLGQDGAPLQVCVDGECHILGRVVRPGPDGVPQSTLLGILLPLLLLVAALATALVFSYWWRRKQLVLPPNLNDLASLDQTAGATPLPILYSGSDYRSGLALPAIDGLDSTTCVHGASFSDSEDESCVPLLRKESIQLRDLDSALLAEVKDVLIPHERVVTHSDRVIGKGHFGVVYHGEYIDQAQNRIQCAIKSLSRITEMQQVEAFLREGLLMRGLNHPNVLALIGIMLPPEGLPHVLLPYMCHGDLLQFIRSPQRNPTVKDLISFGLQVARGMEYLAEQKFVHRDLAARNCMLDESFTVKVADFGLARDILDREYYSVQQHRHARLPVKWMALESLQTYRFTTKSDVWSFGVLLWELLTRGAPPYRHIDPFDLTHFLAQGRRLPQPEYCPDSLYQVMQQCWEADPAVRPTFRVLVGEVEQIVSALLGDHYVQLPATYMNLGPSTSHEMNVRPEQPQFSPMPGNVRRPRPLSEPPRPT
# runDescription: sfRON cell mechanistic assay (HeLa), phosphorylated RON
# Assay type: cell-based
# conditionNotes: sfRON transfected HeLa cells, four hours incubation, inhibition of phosphorylated RON, at least duplicate experiments; read-out: sfRON mech IC50
pIC50: −log10 of the molar value.
measuredAttribute: pIC50

Please review the following examples before continuing.
[
  {
    "molecule": "O[C@H]1CC[C@H](n2cc(-c3cnc4[nH]cc([C@H](CF)c5c(OC(F)F)ccc(F)c5Cl)c4c3)cn2)CC1",
    "pIC50": "≥ 7.52"
  },
  {
    "molecule": "COc1ccc(F)c(Cl)c1[C@@H](CF)c1c[nH]c2ncc(-c3cnn([C@H]4CC[C@H](O)CC4)c3)cc12",
    "pIC50": "7.00 to 7.52"
  },
  {
    "molecule": "O[C@H]1CC[C@H](n2cc(-c3cnc4[nH]cc([C@@H](CF)c5c(OC(F)F)ccc(F)c5Cl)c4c3)cn2)CC1",
    "pIC50": "7.00 to 7.52"
  },
  {
    "molecule": "COc1ccc(F)c(Cl)c1[C@H](CF)c1c[nH]c2ncc(-c3cnn([C@H]4CC[C@H](O)CC4)c3)cc12",
    "pIC50": "5.52 to 6.00"
  }
]

API: the following record is the query input.
Prompt line: Recorded pIC50 for Cn1cc(-c2cnc3[nH]cc(C(CF)c4c(Cl)ccc(F)c4Cl)c3c2)cn1 (centres unmarked) , please?
Response line: 6.00 to 7.00
